The measurements presented in this section are drawn from patent US20100204445A1.

# target entity: recombinant cohesin (CipA of Clostridium josui, BAA32429) (Clostridium josui)
# assay name: SPR (Biacore T-100), fusion captured via anti-JNK3 antibody on Protein A chip, cohesin as analyte, +Ca2+ (1 mM CaCl2), no EGTA
Ends that are not written are not given here.
Would you mind telling me the reported koff of each entry?

Inquiry: Could you tell me which koff is on file for recombinant JNK3 of which an L16T/I49T-substituted dockerin polypeptide is fused at the N-terminal (protein, not shown: large carriers; small tags and cut ends) MGLKGDVNNDGAIDATDIAALKKAILTQSTSNINLTNADMNNDGNIDATDFAQLKVKLLN ?
Reply text: 0.015 s⁻¹

Inquiry: What measured koff goes with recombinant JNK3 of which an I49S-substituted dockerin polypeptide is fused at the N-terminal (protein, not shown: large carriers; small tags and cut ends) MGLKGDVNNDGAIDALDIAALKKAILTQSTSNINLTNADMNNDGNIDASDFAQLKVKLLN ?
Reply text: 0.0045 s⁻¹

Inquiry: Please look up its koff: recombinant JNK3 of which an I49N-substituted dockerin polypeptide was fused at the N-terminal (protein, not shown: large carriers; small tags and cut ends) MGLKGDVNNDGAIDALDIAALKKAILTQSTSNINLTNADMNNDGNIDANDFAQLKVKLLN
Reply text: 0.005 s⁻¹

Inquiry: // query koff value for entry recombinant JNK3 of which an I49V-substituted dockerin polypeptide is fused at the N-terminal (protein, not shown: large carriers; small tags and cut ends) MGLKGDVNNDGAIDALDIAALKKAILTQSTSNINLTNADMNNDGNIDAVDFAQLKVKLLN
Reply text: 0.0033 s⁻¹

Inquiry: Please report the recorded koff for recombinant JNK3 of which an I49T-substituted dockerin polypeptide is fused at the N-terminal (protein, not shown: large carriers; small tags and cut ends) MGLKGDVNNDGAIDALDIAALKKAILTQSTSNINLTNADMNNDGNIDATDFAQLKVKLLN .
Reply text: 0.006 s⁻¹

Inquiry: Would you kindly share the measured koff for recombinant JNK3 of which an I49G-substituted dockerin polypeptide is fused at the N-terminal (protein, not shown: large carriers; small tags and cut ends) MGLKGDVNNDGAIDALDIAALKKAILTQSTSNINLTNADMNNDGNIDAGDFAQLKVKLLN ?
Reply text: 0.0066 s⁻¹

Inquiry: Sample recombinant JNK3 of which a wild-type dockerin was fused at the N-terminal (protein, not shown: large carriers; small tags and cut ends, not fully specified (C-terminus)) MGLKGDVNNDGAIDALDIAALKKAILTQSTSNINLTNADMNNDGNIDAIDFAQLKVKLLN — what was its koff?
Reply text: 0.0053 s⁻¹
